# subject_of_test: P2X7 (Homo sapiens (Human))
# Sequence (Q99572 whole entry): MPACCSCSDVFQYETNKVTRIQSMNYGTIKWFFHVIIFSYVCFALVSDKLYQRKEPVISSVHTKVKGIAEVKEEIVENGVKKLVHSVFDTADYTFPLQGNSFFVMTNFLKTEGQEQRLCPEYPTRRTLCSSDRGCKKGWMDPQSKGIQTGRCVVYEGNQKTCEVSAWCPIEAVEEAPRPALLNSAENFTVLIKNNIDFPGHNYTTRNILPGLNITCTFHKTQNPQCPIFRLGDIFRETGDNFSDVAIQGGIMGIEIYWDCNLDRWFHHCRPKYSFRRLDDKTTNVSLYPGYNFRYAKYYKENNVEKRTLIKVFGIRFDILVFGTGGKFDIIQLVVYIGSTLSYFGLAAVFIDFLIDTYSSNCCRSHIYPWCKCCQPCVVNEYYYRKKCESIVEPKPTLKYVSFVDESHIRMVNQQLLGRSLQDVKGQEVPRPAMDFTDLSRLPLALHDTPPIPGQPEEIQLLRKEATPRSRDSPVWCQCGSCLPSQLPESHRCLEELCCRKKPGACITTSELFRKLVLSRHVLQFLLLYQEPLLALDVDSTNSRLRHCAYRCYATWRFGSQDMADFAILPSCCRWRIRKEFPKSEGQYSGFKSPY
# protocol: P2X7 antagonism in human PBMCs (IL-1β release, ELISA)
# Type: cell-based
# measurement_parameters: 10 μM test compound, LPS 30 ng/ml + Bz-ATP 0.5 mM
Measured PBMC 10 μM (% control) by item
recorded_endpoint: PBMC 10 μM (% control)

| compound | recorded_endpoint | measured_value |
| --- | --- | --- |
| Cc1cc(C)nc(-n2nnc3c2CCN(C(=O)c2cccc(C(F)(F)F)c2Cl)C3C)n1 (stereo not shown) | PBMC 10 μM (% control) | −2.6 |
| Cc1nc2c(n1-c1ccccc1)CCN(C(=O)c1cccc(Cl)c1Cl)C2 | PBMC 10 μM (% control) | −11.0 |
| Cc1c(C(=O)N2Cc3nnn(C4=NN=CC4)c3CC2C)cccc1C(F)(F)F (stereo not shown) | PBMC 10 μM (% control) | −0.6 |
| CC1c2nn(COCC[Si](C)(C)C)c(-c3ncc(F)cn3)c2CCN1C(=O)c1cccc(C(F)(F)F)c1Cl (stereo not shown) | PBMC 10 μM (% control) | −1.6 |
